- experiment: Solubility in simulated intestinal fluid
- Type: physicochemical
- reported.conditions: read-out: Stability
Items are presented alongside their recorded solubility.

smiles: Fc1ccc(-c2noc(CCCNc3cnc4ccc(Cl)cc4c3)n2)c(Cl)c1
quantity.unit: µg/mL
solubility: 87

smiles: Fc1ccc(-c2noc(CCCNc3cnc4ccc(OC(F)(F)F)cc4c3)n2)c(Cl)c1
quantity.unit: µg/mL
solubility: 49

smiles: N#Cc1cc(NC(=O)CCc2nc(-c3ccc(F)cc3Cl)no2)cnc1OCC(F)(F)F
quantity.unit: µg/mL
solubility: 24

smiles: CCn1c2ccccc2c2cc(NC(=O)CCc3nc(-c4ccccc4F)no3)ccc21
quantity.unit: µg/mL
solubility: 2
